Data provenance is PubChem BioAssay.

assay_protocol: probe aWnt5a binding to arrayed compounds – biochemical, biotinylated probe, 635/667 nm fluorescence, primary screen (AID 1113);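 further: score merges 667 nm fluorescence intensity with signal-to-noise per printed feature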
study_conditions: small-molecule microarray, higher = more signal
Classification field: 1 = composite z-score at or over -0.03; 0 = composite z-score under -0.03.

Hi, just wondering whether CC(C)c1ccc(NN2C(C(O)c3ccccn3)C=CC3C(=O)N(c4ccccc4)C(=O)C32)cc1 (stereo not drawn) shows composite z-score of -0.03 or higher. 1

Dear colleague, could you confirm whether O=C1O[C@@H](c2ccccc2)[C@@H](c2ccccc2)N2[C@@H](c3ccc(O)cc3)[C@]3(C(=O)Nc4ccc(C#CC5(O)CCCCCC5)cc43)[C@@H](C(=O)N3CCN(c4ncccn4)CC3)[C@H]12 has composite z-score at or above -0.03? 0

Test whether the molecule O=c1c2ccc(Br)cc2nc(-c2ccccc2)n1Cc1cccc(O)c1 records composite z-score of -0.03 or higher. 1

Item CCCN1C(=O)[C@@H]2Cc3c([nH]c4ccccc34)[C@@H](c3cccc(O)c3)N2C1=O with composite z-score of -0.03 or above? 0

Please indicate if the recorded composite z-score for [N-]=[N+]=NCc1ccccc1[C@H]1OC(c2ccc(OCCCO)cc2)=N[C@@]1(Cc1ccccc1N=[N+]=[N-])C(=O)NCCN1CCOCC1 meets or exceeds -0.03. 1
